Molecular target: Type-B CCK receptor (Cavia porcellus, UniProt H0VZC5)
Construct: Cortical and pancreatic membranes were prepared as described; from tissue; host or cells: guinea pig cerebral cortex membranes
Sequence (H0VZC5 1-426): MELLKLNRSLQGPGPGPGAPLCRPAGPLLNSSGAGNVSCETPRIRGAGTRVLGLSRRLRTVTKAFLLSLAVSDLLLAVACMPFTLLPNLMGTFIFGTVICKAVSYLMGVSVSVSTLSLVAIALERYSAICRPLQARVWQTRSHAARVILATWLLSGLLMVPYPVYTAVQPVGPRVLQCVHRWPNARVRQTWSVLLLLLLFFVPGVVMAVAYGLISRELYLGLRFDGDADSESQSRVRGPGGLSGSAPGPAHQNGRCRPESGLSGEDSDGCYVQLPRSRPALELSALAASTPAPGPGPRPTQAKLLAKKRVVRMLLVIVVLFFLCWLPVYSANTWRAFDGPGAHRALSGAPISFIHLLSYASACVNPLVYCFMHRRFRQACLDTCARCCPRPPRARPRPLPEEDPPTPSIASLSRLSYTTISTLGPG
Test: Radioligand binding of [125I]BH-CCK-8 in guinea pig cerebral cortical membrane preparations
*1 amine or outer side, *2 acyl side, *3 side chain or, on linkers, in order; H or OH if unused. Where a SMILES comes first, the peptide text is derived from it. Side-chain parts run from the residue outwards. [ ]: non-standard residue; d: D form. The star is where a group is joined. NH(1-naphthyl) = c1ccc2c(N*)cccc2c1; NMeF = CN[C@@H](Cc1ccccc1)C(=O)O; NMeD = CN[C@@H](CC(=O)O)C(=O)O; NH(2-Me-phenyl) = Cc1ccccc1N*; Suc = O=C(CCC(=O)[*:2])[*:1]; βNA = c1ccc2cc(N*)ccc2c1; Boc = CC(C)(C)OC(=O)*; CO = O=C([*:1])[*:2]
pIC50 overview
In textbook form, pIC50 equals minus log to base ten of the concentration in mol/L.

compound	pIC50
Cc1ccccc1NC(=O)NCCCC[C@H](NC(=O)[C@H](Cc1c[nH]c2ccccc12)NC(=O)OC(C)(C)C)C(=O)N(C)[C@@H](CC(=O)O)C(=O)N(C)[C@@H](Cc1ccccc1)C(N)=O [Example 61] (Boc-WK([CO-NH(2-Me-phenyl)])[NMeD][NMeF]-NH2)	5.00
CC(C)(C)OC(=O)N[C@@H](Cc1c[nH]c2ccccc12)C(=O)N[C@@H](CCCCNC(=O)Nc1cccc2ccccc12)C(=O)N[C@@H](CC(=O)O)C(=O)N[C@@H](Cc1ccccc1)C(N)=O [Example 28] (Boc-WK([CO-NH(1-naphthyl)])DF-NH2)	5.00
Cc1ccccc1NC(=O)NCCCC[C@H](NC(=O)[C@H](Cc1c[nH]c2ccccc12)NC(=O)CCC(=O)O)C(=O)N[C@@H](CC(=O)O)C(=O)N(C)[C@@H](Cc1ccccc1)C(N)=O [Example 94] (Suc-WK([CO-NH(2-Me-phenyl)])D[NMeF]-NH2)	5.25

Pending compound:
pIC50 measured on CC(C)(C)OC(=O)N[C@@H](Cc1c[nH]c2ccccc12)C(=O)N[C@@H](CCCCNC(=O)Nc1ccc2ccccc2c1)C(=O)N[C@@H](CC(=O)O)C(=O)N[C@@H](Cc1ccccc1)C(N)=O [Example 44] (Boc-WK([CO-βNA])DF-NH2) = 5.49
